measurement-notes: Cytotoxicity on macrophages, MTT assay, 72 h
measurement-context: mouse, J774A.1 macrophages
assay-endpoint: viability at 72 h, 200 µM (%)
Number in %, nothing else.

The reported viability at 72 h, 200 µM of the compound CC1(C)C=C2[C@H]3CC[C@@H]4[C@@]5(C)CC[C@H](O)C(C)(C)[C@@H]5CC[C@@]4(C)[C@]3(C)CC[C@@]2(C(=O)O)CC1 was 0

---

measurement-notes: Cytotoxicity on VERO cells, MTT assay, 72 h
measurement-context: African green monkey, VERO CCL 81 cells
assay-endpoint: viability at 72 h, 12.5 µM (%)
Number in %, nothing else.

The reported viability at 72 h, 12.5 µM of the molecule CC1(C)C=C2[C@H]3CC[C@@H]4[C@@]5(C)CC[C@H](O)C(C)(C)[C@@H]5CC[C@@]4(C)[C@]3(C)CC[C@@]2(C(=O)O)CC1 was 88.8

---

measurement-notes: Cytotoxicity on macrophages, MTT assay, 72 h
measurement-context: mouse, J774A.1 macrophages
assay-endpoint: viability at 72 h, 1.56 µM (%)
Number in %, nothing else.

The reported viability at 72 h, 1.56 µM of the compound CC1(C)C=C2[C@H]3CC[C@@H]4[C@@]5(C)CC[C@H](O)C(C)(C)[C@@H]5CC[C@@]4(C)[C@]3(C)CC[C@@]2(C(=O)O)CC1 was 100

---

measurement-notes: Cytotoxicity on VERO cells, MTT assay, 72 h
measurement-context: African green monkey, VERO CCL 81 cells
assay-endpoint: viability at 72 h, 200 µM
# include the unit after the value

The reported viability at 72 h, 200 µM of the compound CC1(C)C=C2[C@H]3CC[C@@H]4[C@@]5(C)CC[C@H](O)C(C)(C)[C@@H]5CC[C@@]4(C)[C@]3(C)CC[C@@]2(C(=O)O)CC1 was 24.3%

---

Tested on: L. (L.) amazonensis promastigotes
measurement-notes: Growth inhibition of promastigotes, MTT assay, 72 h
Format: cell-based
measurement-context: Leishmania amazonensis, read-out: Promastigotes IC50
assay-endpoint: pIC50
In plain terms, pIC50 is the concentration in mol/L turned into minus its base-10 logarithm.

The reported pIC50 of the compound CC1(C)C=C2[C@H]3CC[C@@H]4[C@@]5(C)CC[C@H](O)C(C)(C)[C@@H]5CC[C@@]4(C)[C@]3(C)CC[C@@]2(C(=O)O)CC1 was 5.95

---

measurement-notes: Cytotoxicity on macrophages, MTT assay, 72 h
measurement-context: mouse, J774A.1 macrophages
assay-endpoint: viability at 72 h, 6.25 µM
# include the unit after the value

The reported viability at 72 h, 6.25 µM of the compound CC1(C)C=C2[C@H]3CC[C@@H]4[C@@]5(C)CC[C@H](O)C(C)(C)[C@@H]5CC[C@@]4(C)[C@]3(C)CC[C@@]2(C(=O)O)CC1 was 100%

---

measurement-notes: Cytotoxicity on macrophages, MTT assay, 72 h
measurement-context: mouse, J774A.1 macrophages
assay-endpoint: viability at 72 h, 100 µM (%)
Number in %, nothing else.

The reported viability at 72 h, 100 µM of the compound CC1(C)C=C2[C@H]3CC[C@@H]4[C@@]5(C)CC[C@H](O)C(C)(C)[C@@H]5CC[C@@]4(C)[C@]3(C)CC[C@@]2(C(=O)O)CC1 was 15

---

measurement-notes: Cytotoxicity on VERO cells, MTT assay, 72 h
measurement-context: African green monkey, VERO CCL 81 cells
assay-endpoint: viability at 72 h, 3.12 µM

The reported viability at 72 h, 3.12 µM of the molecule CC1(C)C=C2[C@H]3CC[C@@H]4[C@@]5(C)CC[C@H](O)C(C)(C)[C@@H]5CC[C@@]4(C)[C@]3(C)CC[C@@]2(C(=O)O)CC1 [Morolic acid, morolic acid] was 100%

---

measurement-notes: in vitro
measurement-context: African green monkey
assay-endpoint: CC50 at 72 h
# include the unit after the value

The reported CC50 at 72 h of the compound C[C@@H]1[C@H](O)[C@@H](C)/C=C/C=C/C=C/C=C/C=C/C=C/C=C/[C@H](O[C@@H]2O[C@H](C)[C@@H](O)[C@H](N)[C@@H]2O)C[C@@H]2O[C@](O)(C[C@@H](O)C[C@@H](O)[C@H](O)CC[C@@H](O)C[C@@H](O)CC(=O)O[C@H]1C)C[C@H](O)[C@H]2C(=O)O [Amphotericin B, reference compound] was 0.32 µM

---

measurement-notes: Cytotoxicity on macrophages, MTT assay, 72 h
measurement-context: mouse, J774A.1 macrophages
assay-endpoint: viability at 72 h, 50 µM (%)
Number in %, nothing else.

The reported viability at 72 h, 50 µM of the compound CC1(C)C=C2[C@H]3CC[C@@H]4[C@@]5(C)CC[C@H](O)C(C)(C)[C@@H]5CC[C@@]4(C)[C@]3(C)CC[C@@]2(C(=O)O)CC1 was 65

---

measurement-notes: Cytotoxicity on macrophages, MTT assay, 72 h
measurement-context: mouse, J774A.1 macrophages
assay-endpoint: viability at 72 h, 12.5 µM (%)
Number in %, nothing else.

The reported viability at 72 h, 12.5 µM of the compound CC1(C)C=C2[C@H]3CC[C@@H]4[C@@]5(C)CC[C@H](O)C(C)(C)[C@@H]5CC[C@@]4(C)[C@]3(C)CC[C@@]2(C(=O)O)CC1 was 100
